Data provenance: patent US9289415B2

# target-or-test-system: UniProt O60341
# assay-text: Formaldehyde dehydrogenase (FDH)-coupled LSD1 demethylation assay
# measurement-conditions: dose-response of rate of formaldehyde production; H3K4Me2 peptide
# Experimental: Demethylase Assay—For a typical reaction, the volume of the reaction is 100 μl, in which either 6 μg bulk histone, or 3 ug nucleosome, or 3 μg of modified histone peptides were used as substrates. […] The demethylation of histone and nucleosome substrates was analyzed by SDS-PAGE/Western blotting using methylation-specific antibodies. The demethylation of histone peptides was analyzed either by formaldehyde dehydrogenase assay or by mass spectrometry. […]
reported-property: EC50

compound: CC(C)n1c(/C=C/C(O)CC(O)CC(=O)O)c(-c2ccc(F)cc2)c2ccccc21 (stereo not shown)
recorded-result: ~25 µM
